- studyTarget: T1, human RXFP1 (human, UniProt Q9HBX9 1-757)
- T1 sequence (looked up): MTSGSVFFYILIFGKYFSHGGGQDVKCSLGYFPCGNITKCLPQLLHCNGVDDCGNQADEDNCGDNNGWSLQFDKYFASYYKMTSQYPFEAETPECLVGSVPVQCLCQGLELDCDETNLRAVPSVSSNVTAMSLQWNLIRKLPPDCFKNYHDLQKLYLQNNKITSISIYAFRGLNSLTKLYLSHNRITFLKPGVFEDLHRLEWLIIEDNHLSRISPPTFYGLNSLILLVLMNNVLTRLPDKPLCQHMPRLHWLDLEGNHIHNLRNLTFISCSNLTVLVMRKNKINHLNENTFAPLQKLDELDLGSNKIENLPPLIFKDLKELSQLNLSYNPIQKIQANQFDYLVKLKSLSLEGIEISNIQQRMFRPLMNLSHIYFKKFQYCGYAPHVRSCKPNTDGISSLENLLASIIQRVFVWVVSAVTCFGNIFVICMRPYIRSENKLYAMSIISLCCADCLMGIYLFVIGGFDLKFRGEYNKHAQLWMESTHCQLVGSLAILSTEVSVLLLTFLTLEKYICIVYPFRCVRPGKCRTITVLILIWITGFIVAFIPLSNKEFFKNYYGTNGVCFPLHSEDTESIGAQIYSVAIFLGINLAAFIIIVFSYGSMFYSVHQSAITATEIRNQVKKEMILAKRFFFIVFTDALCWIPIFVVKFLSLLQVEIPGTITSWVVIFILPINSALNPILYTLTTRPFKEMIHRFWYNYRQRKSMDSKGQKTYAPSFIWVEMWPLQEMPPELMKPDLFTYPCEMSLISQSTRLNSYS
- assayName: cell-based or functional assay
Numbered stars: 1 amine (or outer) side, 2 acyl side, 3 side chain; on linkers, the order of the positions; unused ones are H or OH. Square brackets hold non-standard residues; d marks the D form. Side chains are listed from the residue outwards. * marks the point of attachment. TTDS = 4-[3-[2-[2-(3-aminopropoxy)ethoxy]ethoxy]propylamino]-4-oxo-butanoyl; γGlu = O=C(O)[C@H](CCC(=O)[*:2])N[*:1]; Stearoyl = CCCCCCCCCCCCCCCCCC(=O)*; Palmitoyl = CCCCCCCCCCCCCCCC(=O)*; Aib = CC(C)(N)C(=O)O
measurementKind: EMax, OVCAR 5 cells (cAMP) (%)

- binder: "Ac-LEGREKVRAK(Ac)I[Aib][Aib]EGK([TTDS-TTDS-TTDS-γGlu-γGlu-γGlu-Palmitoyl])STFS[dK]RAK(Ac)-NH2 [Relaxin peptide analogue of SEQ ID NO: 36]"
  measurementKind: "EMax, OVCAR 5 cells (cAMP)"
  observedMeasurement: 93
- binder: "Ac-LEGREKVRAK(Ac)I[Aib][Aib]EGK([TTDS-TTDS-γGlu-γGlu-γGlu-Palmitoyl])STFS[dK]RAK(Ac)-NH2 [Relaxin peptide analogue of SEQ ID NO: 16]"
  measurementKind: "EMax, OVCAR 5 cells (cAMP)"
  observedMeasurement: 88
- binder: "Ac-LEGREKVRAK(Ac)I[Aib][Aib]EGK([TTDS-TTDS-TTDS-γGlu-γGlu-γGlu-Stearoyl])STWS[Aib]RKK(Ac)-NH2 [Relaxin peptide analogue of SEQ ID NO: 20]"
  measurementKind: "EMax, OVCAR 5 cells (cAMP)"
  observedMeasurement: 96
- binder: "Ac-LEGREKVRAK(Ac)I[Aib][Aib]EGK([TTDS-TTDS-γGlu-γGlu-γGlu-Palmitoyl])STWS[dK]RKK(Ac)-NH2 [Relaxin peptide analogue of SEQ ID NO: 18]"
  measurementKind: "EMax, OVCAR 5 cells (cAMP)"
  observedMeasurement: 92
